Quick reference for pIC50 among some compounds
test system: Nipah virus; experiment: microbe, parasite or virus in culture; type: cell-based; details: Henipavirus nipahense, 1 h, read-out: NiV IC50, post-infection (Post)
Scale for pIC50: -log10 of concentration given in mol/L; no unit attached.

[[record]]
compound = "CN(C)c1ccc(C(=C2C=CC(=[N+](C)C)C=C2)c2ccc(N(C)C)cc2)cc1 [Gentian Violet, gentian violet]"
result_type = "pIC50"
experimental_result = 5.40


Next compound, please.
Data point: CN1C(=O)[C@]23CC4=CC=C[C@H](O)[C@H]4N2C(=O)[C@@]1(CO)SS3 [Gliotoxin, gliotoxin] ; pIC50 = 6.21

* * *

assay: in vitro; settings: human
result type: CC50

Data point: CN(C)c1ccc(C(=C2C=CC(=[N+](C)C)C=C2)c2ccc(N(C)C)cc2)cc1 ; CC50 = 2830 nM

Data point: CN1C(=O)[C@]23CC4=CC=C[C@H](O)[C@H]4N2C(=O)[C@@]1(CO)SS3 ; CC50 = 1610 nM
